# MEASURED_ON: hNav 1.7 (Homo sapiens (Human), UniProt Q15858)
# Sequence (Q15858 whole entry): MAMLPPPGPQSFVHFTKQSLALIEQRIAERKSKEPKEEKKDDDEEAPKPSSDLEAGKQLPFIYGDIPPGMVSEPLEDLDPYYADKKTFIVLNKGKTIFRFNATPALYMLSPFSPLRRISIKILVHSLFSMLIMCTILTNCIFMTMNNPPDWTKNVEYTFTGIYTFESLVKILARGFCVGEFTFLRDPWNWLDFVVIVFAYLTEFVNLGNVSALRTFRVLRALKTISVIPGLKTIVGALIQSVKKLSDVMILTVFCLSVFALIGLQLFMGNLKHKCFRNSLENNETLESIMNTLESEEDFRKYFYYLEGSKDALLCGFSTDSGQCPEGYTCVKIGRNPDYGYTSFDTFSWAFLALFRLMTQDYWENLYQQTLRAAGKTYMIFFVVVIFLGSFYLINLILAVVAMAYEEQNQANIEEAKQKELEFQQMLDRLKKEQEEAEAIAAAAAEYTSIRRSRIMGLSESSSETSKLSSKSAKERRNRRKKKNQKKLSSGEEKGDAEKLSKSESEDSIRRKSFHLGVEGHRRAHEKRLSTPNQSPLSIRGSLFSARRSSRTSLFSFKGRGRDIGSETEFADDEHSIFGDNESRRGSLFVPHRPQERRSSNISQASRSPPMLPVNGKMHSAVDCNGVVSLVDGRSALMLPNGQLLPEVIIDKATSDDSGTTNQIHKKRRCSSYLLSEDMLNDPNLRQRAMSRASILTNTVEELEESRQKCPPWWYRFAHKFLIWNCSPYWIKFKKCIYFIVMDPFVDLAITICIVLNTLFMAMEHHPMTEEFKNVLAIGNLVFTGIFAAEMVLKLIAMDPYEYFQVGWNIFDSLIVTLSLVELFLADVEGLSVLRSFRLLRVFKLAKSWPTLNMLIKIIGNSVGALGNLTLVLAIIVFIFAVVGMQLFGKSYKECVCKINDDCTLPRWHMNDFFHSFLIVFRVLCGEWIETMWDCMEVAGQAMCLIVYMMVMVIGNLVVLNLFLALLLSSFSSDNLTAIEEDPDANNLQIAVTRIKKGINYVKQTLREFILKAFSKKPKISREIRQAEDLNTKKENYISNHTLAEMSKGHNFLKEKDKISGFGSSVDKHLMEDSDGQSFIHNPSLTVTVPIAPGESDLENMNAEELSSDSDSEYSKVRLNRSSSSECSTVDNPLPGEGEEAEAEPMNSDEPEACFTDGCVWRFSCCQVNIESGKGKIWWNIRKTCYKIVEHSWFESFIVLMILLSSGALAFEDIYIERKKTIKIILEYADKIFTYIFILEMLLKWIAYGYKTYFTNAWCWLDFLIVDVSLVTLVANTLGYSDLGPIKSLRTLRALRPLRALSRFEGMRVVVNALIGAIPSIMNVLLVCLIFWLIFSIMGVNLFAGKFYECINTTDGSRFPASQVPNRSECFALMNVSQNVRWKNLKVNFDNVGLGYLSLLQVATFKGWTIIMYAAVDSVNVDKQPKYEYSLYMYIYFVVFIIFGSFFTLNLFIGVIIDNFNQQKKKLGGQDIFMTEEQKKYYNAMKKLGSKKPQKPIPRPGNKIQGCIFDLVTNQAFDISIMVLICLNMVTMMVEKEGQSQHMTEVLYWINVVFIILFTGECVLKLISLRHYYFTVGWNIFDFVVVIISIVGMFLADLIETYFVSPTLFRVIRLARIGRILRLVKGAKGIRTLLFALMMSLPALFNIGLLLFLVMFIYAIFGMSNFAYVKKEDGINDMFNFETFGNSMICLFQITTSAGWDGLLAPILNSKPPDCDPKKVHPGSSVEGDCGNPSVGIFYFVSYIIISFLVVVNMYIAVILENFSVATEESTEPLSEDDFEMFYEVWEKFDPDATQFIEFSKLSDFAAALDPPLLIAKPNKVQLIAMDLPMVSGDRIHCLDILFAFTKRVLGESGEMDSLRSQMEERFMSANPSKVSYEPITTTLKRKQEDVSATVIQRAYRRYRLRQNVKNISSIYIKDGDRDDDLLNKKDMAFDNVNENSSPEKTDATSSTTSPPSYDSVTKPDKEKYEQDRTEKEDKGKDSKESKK
# Sequence (Q07699 19-218 partner): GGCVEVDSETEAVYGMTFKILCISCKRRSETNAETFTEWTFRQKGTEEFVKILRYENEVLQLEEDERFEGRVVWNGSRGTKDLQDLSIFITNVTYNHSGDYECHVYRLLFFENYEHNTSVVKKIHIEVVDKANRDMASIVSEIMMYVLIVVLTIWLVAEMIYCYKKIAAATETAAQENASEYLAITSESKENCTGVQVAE
# Sequence (O60939 30-215 partner): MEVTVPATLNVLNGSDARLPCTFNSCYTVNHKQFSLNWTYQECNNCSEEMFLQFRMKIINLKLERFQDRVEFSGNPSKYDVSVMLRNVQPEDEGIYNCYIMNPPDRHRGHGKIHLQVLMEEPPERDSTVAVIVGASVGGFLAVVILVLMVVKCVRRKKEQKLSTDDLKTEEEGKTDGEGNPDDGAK
# PROTOCOL_SUMMARY: Electrophysiological evaluation, automated patch clamp IonWorks Quattro (Population Patch Clamp mode)
# EXPERIMENTAL_CONDITIONS: HEK293A cells stably expressing hNav 1.7/β1/β2; response to second depolarization pulse, pre-pulse potential set to V1/2; read-out: hNav1.7 IC50
pIC50: −log10 of the molar value.
EXPERIMENTAL_ENDPOINT: pIC50

[1] Cc1c(O[C@H]2CCCC[C@@H]2c2ccnn2C)ccc(S(=O)(=O)Nc2ccncn2)c1F (relative stereo)
[2] O=S(=O)(Nc1cscn1)c1cc(Cl)c(O[C@H]2CCCC[C@@H]2n2ccnc2)cc1F (relative stereo)
Challenge: I'd appreciate it if you could identify which of 1 and 2 has the greater pIC50. Lab log: write the label of the selected item as the result.
Response given: 1
(1: 7.77, 2: 7.09)

----------
# MEASURED_ON: hNav 1.7 (Homo sapiens (Human), UniProt Q15858)
# PROTOCOL_SUMMARY: Electrophysiological evaluation, automated patch clamp IonWorks Quattro (Population Patch Clamp mode)
# EXPERIMENTAL_CONDITIONS: HEK293A cells stably expressing hNav 1.7/β1/β2; response to second depolarization pulse, pre-pulse potential set to V1/2; read-out: hNav1.7 IC50
EXPERIMENTAL_ENDPOINT: IC50 (µM)

Reference set (4 entries):
MOLECULE | MEASURED_ON | UNIT_STRING | IC50
Cn1nccc1[C@H]1CCCCC[C@@H]1Oc1cc(F)c(S(=O)(=O)Nc2ccncn2)cc1F (relative stereo) [Example 42] | hNav 1.7 (Homo sapiens (Human), UniProt Q15858) | µM | 0.091
Cc1cc(S(=O)(=O)Nc2ccncn2)c(F)cc1O[C@H]1CCC(F)(F)C[C@@H]1c1ccnn1C (relative stereo) [Example 126] | hNav 1.7 (Homo sapiens (Human), UniProt Q15858) | µM | 0.014
Cn1nccc1[C@H]1CCCC[C@@H]1Oc1ccc(S(=O)(=O)Nc2ccncn2)c(F)c1Cl (relative stereo) [Example 79] | hNav 1.7 (Homo sapiens (Human), UniProt Q15858) | µM | 0.07
Cc1cc(S(=O)(=O)Nc2ccncn2)ccc1O[C@H]1CCC[C@@H]1c1ccnn1C (relative stereo) [Example 52] | hNav 1.7 (Homo sapiens (Human), UniProt Q15858) | µM | 0.083

[P] O=S(=O)(Nc1ccncn1)c1c(F)cc(O[C@H]2CC(F)(F)CC[C@@H]2c2cn[nH]c2)cc1F (relative stereo) [Example 104]
[Q] Cc1cc(S(=O)(=O)Nc2ccncn2)c(F)cc1O[C@H]1CCCC[C@@H]1c1cn[nH]c1 [Example 172]
Challenge: Input pair: P , Q . Output: entry with lower IC50. Lab log: write the label of the selected item as the result.
Response given: Q
(Q: 0.034 µM, P: 0.071 µM)

[a] O=S(=O)(Nc1ccncn1)c1ccc(O[C@H]2CCCC[C@@H]2c2cn[nH]c2)c(F)c1F (relative stereo) [Example 83]
[b] Cc1cc(S(=O)(=O)Nc2nncs2)c(F)cc1O[C@H]1CC(F)(F)CC[C@@H]1c1ccnn1C (relative stereo) [Example 125]
Challenge: Input pair: a , b . Output: entry with lower IC50. Lab log: write the label of the selected item as the result.
Response given: b
(b: 0.2 µM, a: 0.65 µM)

----------
# MEASURED_ON: hNav 1.7 (Homo sapiens (Human))
# PROTOCOL_SUMMARY: Electrophysiological evaluation, automated patch clamp IonWorks Quattro (Population Patch Clamp mode)
# EXPERIMENTAL_CONDITIONS: HEK293A cells stably expressing hNav 1.7/β1/β2; response to second depolarization pulse, pre-pulse potential set to V1/2; read-out: hNav1.7 IC50
EXPERIMENTAL_ENDPOINT: IC50 (nM)

COMPOUND | VALUE_MEASURED
Nc1cc([C@H]2CCCC[C@@H]2Oc2cc(F)c(S(=O)(=O)Nc3ccncn3)cc2F)ccn1 (relative stereo) | 99
CC(=O)O[C@@H]1CC[C@H](Oc2cc(F)c(S(=O)(=O)Nc3ccncn3)cc2Cl)[C@@H](c2ccnn2C)C1 | 59
CCn1nccc1[C@H]1CCC[C@@H]1Oc1cc(F)c(S(=O)(=O)Nc2ccncn2)c(F)c1 (relative stereo) | 47
Cc1cc(S(=O)(=O)Nc2ccncn2)c(F)cc1O[C@@H]1CC(F)(F)CC[C@H]1c1cn[nH]c1 | 3400

[A] Cn1nccc1[C@H]1CCC(F)(F)C[C@@H]1Oc1cc(F)c(S(=O)(=O)Nc2ccncn2)c(F)c1 (relative stereo)
[B] Cc1cc(S(=O)(=O)Nc2ccncn2)c(F)cc1O[C@H]1CCCC[C@@H]1c1c[nH]nc1N (relative stereo)
[C] Cn1nccc1[C@H]1CC(F)(F)C[C@@H]1Oc1ccc(S(=O)(=O)Nc2ccncn2)c(F)c1 (relative stereo)
[D] O=S(=O)(Nc1ncns1)c1cc(F)c(O[C@H]2CCC[C@@H]2c2ccccc2)cc1F (relative stereo)
Challenge: Arrange the 4 compounds by rising IC50, starting with the smallest. Give your ranking as a list of the labels in the requested order.
Response given: A, B, C, D

----------
# MEASURED_ON: hNav 1.7 (Homo sapiens (Human))
# PROTOCOL_SUMMARY: Electrophysiological evaluation, automated patch clamp IonWorks Quattro (Population Patch Clamp mode)
# EXPERIMENTAL_CONDITIONS: HEK293A cells stably expressing hNav 1.7/β1/β2; response to second depolarization pulse, pre-pulse potential set to V1/2; read-out: hNav1.7 IC50
pIC50: −log10 of the molar value.
EXPERIMENTAL_ENDPOINT: pIC50

COMPOUND | VALUE_MEASURED
Cn1nccc1[C@H]1C[C@H](O)CC[C@@H]1Oc1cc(F)c(S(=O)(=O)Nc2ccncn2)cc1Cl (relative stereo) [Example 161] | 6.89
Cc1c(O[C@H]2CCC[C@@H]2c2ccnn2C)ccc(S(=O)(=O)Nc2ccncn2)c1F (relative stereo) | 6.89

[a] Cn1nccc1[C@H]1C[C@H](O)CC[C@@H]1Oc1cc(F)c(S(=O)(=O)Nc2ccncn2)cc1Cl [Example 165]
[b] O=S(=O)(Nc1ccncn1)c1cc(Cl)c(O[C@@H]2CCCC[C@H]2c2ccn[nH]2)cc1F
Challenge: Input pair: a , b . Output: entry with lower pIC50. Lab log: write the label of the selected item as the result.
Response given: b

----------
# MEASURED_ON: hNav 1.7 (Homo sapiens (Human), UniProt Q15858)
# PROTOCOL_SUMMARY: Electrophysiological evaluation, automated patch clamp IonWorks Quattro (Population Patch Clamp mode)
# Type: cell-based
# EXPERIMENTAL_CONDITIONS: HEK293A cells stably expressing hNav 1.7/β1/β2; response to second depolarization pulse, pre-pulse potential set to V1/2; read-out: hNav1.7 IC50
EXPERIMENTAL_ENDPOINT: IC50 (nM)

[a] O=S(=O)(Nc1ccncn1)c1cc(F)c(O[C@H]2CCCC[C@@H]2c2cccnc2)cc1F (relative stereo)
[b] Cn1nccc1[C@H]1CC[C@H](O)C[C@@H]1Oc1cc(F)c(S(=O)(=O)Nc2ccncn2)cc1Cl (relative stereo)
Challenge: I'd appreciate it if you could identify which of a and b has the greater IC50. Lab log: write the label of the selected item as the result.
Response given: a

----------
# MEASURED_ON: UniProtKB Q15858
# PROTOCOL_SUMMARY: Electrophysiological evaluation, automated patch clamp IonWorks Quattro (Population Patch Clamp mode)
# EXPERIMENTAL_CONDITIONS: HEK293A cells stably expressing hNav 1.7/β1/β2; response to second depolarization pulse, pre-pulse potential set to V1/2; read-out: hNav1.7 IC50
EXPERIMENTAL_ENDPOINT: IC50 (nM)

Reference set (5 entries):
COMPOUND | MEASURED_ON | UNIT_STRING | IC50
Cn1nccc1[C@H]1CCC[C@@H]1Oc1ccc(S(=O)(=O)Nc2ccncn2)c(F)c1 (relative stereo) [Example 29] | UniProtKB Q15858 | nM | 1800
O=S(=O)(Nc1ccncn1)c1cc(Cl)c(O[C@H]2CCC[C@@H]2c2ccn[nH]2)cc1F [Example 150] | UniProtKB Q15858 | nM | 21
Cn1nccc1[C@H]1CCCCC[C@@H]1Oc1ccc(S(=O)(=O)Nc2ccncn2)c(F)c1 (relative stereo) [Example 58] | UniProtKB Q15858 | nM | 660
Cn1nccc1[C@H]1CC(F)(F)CC[C@@H]1Oc1ccc(S(=O)(=O)Nc2ccncn2)c(F)c1 (relative stereo) [Example 130] | UniProtKB Q15858 | nM | 880
O=S(=O)(Nc1ncns1)c1cc(F)c(O[C@H]2CCCC[C@@H]2c2ccccc2)cc1F [Example 2] | UniProtKB Q15858 | nM | 20

[I] Cn1nccc1[C@H]1CCC(F)(F)C[C@@H]1Oc1ccc(S(=O)(=O)Nc2ccncn2)c(F)c1 (relative stereo) [Example 110]
[II] [2H]c1nccc(NS(=O)(=O)c2ccc(O[C@H]3CCC[C@@H]3c3ccnn3CC)c(F)c2F)n1 (relative stereo) [Example 95]
Challenge: I'd appreciate it if you could identify which of I and II has the greater IC50. Lab log: write the label of the selected item as the result.
Response given: I
(I: 300 nM, II: 170 nM)
